assay: Inhibition of PDE2 derived from bovine heart by scintillation counter analysis; set-up: species or system Bos taurus
measured quantity: IC50 (nM)
Number in nM, nothing else.

Reported IC50 for "COc1ccc(Cc2nc(O)c3c(C)nc([C@@H](CCCc4ccccc4)[C@@H](C)O)n3n2)cc1OC" : what is it? 4.7

* * *

assay: Inhibition of human glycogen phosphorylase
measured quantity: pIC50
// pIC50 here means minus log10 of the molar concentration (mol/L)

Reported pIC50 for "Cn1c(=O)c2c(ncn2C)n(C)c1=O" : what is it? 4.04

* * *

Would you mind telling me the reported solubility of each entry?
experiment: Aqueous solubility of compound; type: physicochemical

Reported solubility for "Cn1c(=O)c2[nH]c(-c3ccc(S(=O)(=O)O)cc3)nc2n(C)c1=O" : what is it? > 20 µM

Reported solubility for "CCCn1c(=O)c2c(nc(/C=C/c3ccc(OC)c(OC)c3)n2C)n(CCC)c1=O" : what is it? < 10 µg/mL

* * *

test: Inhibition of human glycogen phosphorylase in presence of 0.2 mM of AMP
measured quantity: pIC50
// pIC50 here means minus log10 of the molar concentration (mol/L)

Reported pIC50 for "Cn1c(=O)c2c(ncn2C)n(C)c1=O" : what is it? 3.44

* * *

measured quantity: Ki

Checklist item: Ki tested on UniProtKB Q9Y2T3, entry "Cn1c(=O)c2c(ncn2C)n(C)c1=O" , value? 10 µM
